Please respond with reported MCHC for every item in the list.
Test: Hematology assays in cynomolgus monkeys (Example 45)
Format: in vivo
Conditions: day 22; escalating dose regimen
Field: numeric (g/dL). Do not append units.

Specify MCHC for ISIS 416850: MOE gapmer, nucleobases 1275 to 1318 of SEQ ID NO: 1 (Table 8) (antisense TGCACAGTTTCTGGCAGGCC; MOE gapmer, wing and gap sizes not given here) and stop.
28

Specify MCHC for ISIS 417002: MOE gapmer, nucleobases 1275 to 1318 of SEQ ID NO: 1 (Table 8) (antisense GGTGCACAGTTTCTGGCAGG; MOE gapmer, wing and gap sizes not given here) and stop.
29

Specify MCHC for ISIS 416838: MOE gapmer, nucleobases 1018 to 1042 of SEQ ID NO: 1 (Table 6) (antisense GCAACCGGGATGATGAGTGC; MOE gapmer, wing and gap sizes not given here) and stop.
29

Specify MCHC for ISIS 416864: MOE gapmer, nucleobases 1275 to 1318 of SEQ ID NO: 1 (Table 8) (antisense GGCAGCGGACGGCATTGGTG; MOE gapmer, wing and gap sizes not given here) and stop.
29

Specify MCHC for ISIS 416858: MOE gapmer, nucleobases 1275 to 1318 of SEQ ID NO: 1 (Table 8) (antisense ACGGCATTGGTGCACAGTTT; MOE gapmer, wing and gap sizes not given here) and stop.
30

====

Experiment: Hematology assays in cynomolgus monkeys (Example 45)
Type: in vivo
Conditions: day 8; escalating dose regimen
Experimental Readout: MCHC
Note to self: number, then unit, no commentary.

Specify MCHC for ISIS 416858: MOE gapmer, nucleobases 1275 to 1318 of SEQ ID NO: 1 (Table 8) (antisense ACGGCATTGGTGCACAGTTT; MOE gapmer, wing and gap sizes not given here) and stop.
30 g/dL

Specify MCHC for ISIS 417002: MOE gapmer, nucleobases 1275 to 1318 of SEQ ID NO: 1 (Table 8) (antisense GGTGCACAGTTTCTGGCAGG; MOE gapmer, wing and gap sizes not given here) and stop.
29 g/dL

Specify MCHC for ISIS 416864: MOE gapmer, nucleobases 1275 to 1318 of SEQ ID NO: 1 (Table 8) (antisense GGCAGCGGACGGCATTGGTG; MOE gapmer, wing and gap sizes not given here) and stop.
29 g/dL

====

Tested on: human Factor 11 mRNA
Assay: Dose-dependent inhibition of human Factor 11 in HepG2 cells, electroporation 625-20,000 nM (Example 5)
Type: cell-based
Conditions: 5000 nM, ~16 hours
Experimental Readout: percent inhibition of human Factor 11 mRNA relative to untreated control cells (%)
Field: numeric (%). Do not append units.

# return percent inhibition of human Factor 11 mRNA relative to untreated control cells of 416892 (antisense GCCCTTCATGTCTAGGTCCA; 3-14-3 chimeric gapmer, further chemistry not given here) [compound 416892] (system: human Factor 11 mRNA)
97

# return percent inhibition of human Factor 11 mRNA relative to untreated control cells of 417002 (antisense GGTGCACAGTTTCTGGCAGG; 2-13-5 gapmer chemistry, further chemistry not given here) [compound 417002] (system: human Factor 11 mRNA)
90

# return percent inhibition of human Factor 11 mRNA relative to untreated control cells of 416864 (antisense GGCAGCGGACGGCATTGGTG; 5-10-5 gapmer, further chemistry not given here) [compound 416864] (system: human Factor 11 mRNA)
87

# return percent inhibition of human Factor 11 mRNA relative to untreated control cells of 416858 (antisense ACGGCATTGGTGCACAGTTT; 5-10-5 gapmer, further chemistry not given here) [compound 416858] (system: human Factor 11 mRNA)
89

# return percent inhibition of human Factor 11 mRNA relative to untreated control cells of 416825 (antisense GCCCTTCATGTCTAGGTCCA; 5-10-5 gapmer, further chemistry not given here) [compound 416825] (system: human Factor 11 mRNA)
94

# return percent inhibition of human Factor 11 mRNA relative to untreated control cells of 416925 (antisense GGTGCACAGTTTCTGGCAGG; 3-14-3 gapmer chemistry, further chemistry not given here) [compound 416925] (system: human Factor 11 mRNA)
91

# return percent inhibition of human Factor 11 mRNA relative to untreated control cells of 417003 (antisense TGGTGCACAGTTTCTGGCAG; 2-13-5 gapmer chemistry, further chemistry not given here) [compound 417003] (system: human Factor 11 mRNA)
90

# return percent inhibition of human Factor 11 mRNA relative to untreated control cells of 416838 (antisense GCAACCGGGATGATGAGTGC; 5-10-5 gapmer, further chemistry not given here) [compound 416838] (system: human Factor 11 mRNA)
90

# return percent inhibition of human Factor 11 mRNA relative to untreated control cells of 416850 (antisense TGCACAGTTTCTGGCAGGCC; 5-10-5 gapmer, further chemistry not given here) [compound 416850] (system: human Factor 11 mRNA)
90

# return percent inhibition of human Factor 11 mRNA relative to untreated control cells of 416826 (antisense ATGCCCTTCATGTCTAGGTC; 5-10-5 gapmer, further chemistry not given here) [compound 416826] (system: human Factor 11 mRNA)
92

# return percent inhibition of human Factor 11 mRNA relative to untreated control cells of 416999 (antisense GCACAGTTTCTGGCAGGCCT; 2-13-5 gapmer chemistry, further chemistry not given here) [compound 416999] (system: human Factor 11 mRNA)
94

====

Please respond with reported percent inhibition of Factor 11 at 75 nM for every item in the list.
System: human Factor 11 mRNA
Assay: Dose-dependent inhibition of human Factor 11 in HepG2 cells, lipofectin 9.375-75 nM (Example 4)
Assay type: cell-based
Settings: 75 nM, relative to untreated control cells
Strand notation (5' to 3'): a small letter for the sugar, then the base; units joined by * are phosphorothioate-linked, units joined directly phosphodiester-linked; [ ] holds rarer units or linkages, { } end groups; capitals alone tell only the bases. e = 2'-O-(2-methoxyethyl) (MOE); [5mC] = 5-methylcytosine; d = 2'-deoxy (DNA)
Field: numeric (%). Do not append units.

# return percent inhibition of Factor 11 at 75 nM of 416825 (antisense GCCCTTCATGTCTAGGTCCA; 5-10-5 gapmer, further chemistry not given here) [compound 416825] (system: human Factor 11 mRNA)
92

# return percent inhibition of Factor 11 at 75 nM of 416926 (antisense eT*eG*eG*dT*dG*d[5mC]*dA*d[5mC]*dA*dG*dT*dT*dT*d[5mC]*dT*dG*dG*e[5mC]*eA*eG) [compound 416926] (system: human Factor 11 mRNA)
82

# return percent inhibition of Factor 11 at 75 nM of 416993 (antisense e[5mC]*eT*dT*dT*dG*dA*dG*dA*dT*dT*d[5mC]*dT*dT*dT*dG*eG*eG*e[5mC]*e[5mC]*eA) [compound 416993] (system: human Factor 11 mRNA)
68

# return percent inhibition of Factor 11 at 75 nM of 416922 (antisense eG*e[5mC]*eA*d[5mC]*dA*dG*dT*dT*dT*d[5mC]*dT*dG*dG*d[5mC]*dA*dG*dG*e[5mC]*e[5mC]*eT) [compound 416922] (system: human Factor 11 mRNA)
75

# return percent inhibition of Factor 11 at 75 nM of 413467 (antisense eG*eG*eT*e[5mC]*e[5mC]*dA*d[5mC]*dA*dT*dA*dA*dA*dT*dG*dT*e[5mC]*eT*eT*eT*eG) [compound 413467] (system: human Factor 11 mRNA)
69

# return percent inhibition of Factor 11 at 75 nM of 416931 (antisense eG*eG*e[5mC]*dA*dT*dT*dG*dG*dT*dG*d[5mC]*dA*d[5mC]*dA*dG*dT*dT*eT*e[5mC]*eT) [compound 416931] (system: human Factor 11 mRNA)
71

# return percent inhibition of Factor 11 at 75 nM of 413476 (antisense eT*eT*eG*eA*eG*dA*dT*dT*d[5mC]*dT*dT*dT*dG*dG*dG*e[5mC]*e[5mC]*eA*eT*eT) [compound 413476] (system: human Factor 11 mRNA)
77

# return percent inhibition of Factor 11 at 75 nM of 416924 (antisense eG*eT*eG*d[5mC]*dA*d[5mC]*dA*dG*dT*dT*dT*d[5mC]*dT*dG*dG*d[5mC]*dA*eG*eG*e[5mC]) [compound 416924] (system: human Factor 11 mRNA)
59

# return percent inhibition of Factor 11 at 75 nM of 417000 (antisense eT*eG*d[5mC]*dA*d[5mC]*dA*dG*dT*dT*dT*d[5mC]*dT*dG*dG*d[5mC]*eA*eG*eG*e[5mC]*e[5mC]) [compound 417000] (system: human Factor 11 mRNA)
70

# return percent inhibition of Factor 11 at 75 nM of 416858 (antisense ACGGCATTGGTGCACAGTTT; 5-10-5 gapmer, further chemistry not given here) [compound 416858] (system: human Factor 11 mRNA)
82

# return percent inhibition of Factor 11 at 75 nM of 416896 (antisense eT*eT*eA*dT*dG*d[5mC]*d[5mC]*d[5mC]*dT*dT*d[5mC]*dA*dT*dG*dT*d[5mC]*dT*eA*eG*eG) [compound 416896] (system: human Factor 11 mRNA)
81

# return percent inhibition of Factor 11 at 75 nM of 416999 (antisense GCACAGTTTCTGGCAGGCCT; 2-13-5 gapmer chemistry, further chemistry not given here) [compound 416999] (system: human Factor 11 mRNA)
73

# return percent inhibition of Factor 11 at 75 nM of 416826 (antisense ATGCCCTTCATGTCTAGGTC; 5-10-5 gapmer, further chemistry not given here) [compound 416826] (system: human Factor 11 mRNA)
84

# return percent inhibition of Factor 11 at 75 nM of 416973 (antisense eT*eT*dA*dT*dG*d[5mC]*d[5mC]*d[5mC]*dT*dT*d[5mC]*dA*dT*dG*dT*e[5mC]*eT*eA*eG*eG) [compound 416973] (system: human Factor 11 mRNA)
87

# return percent inhibition of Factor 11 at 75 nM of 416941 (antisense eG*eG*e[5mC]*dA*dG*d[5mC]*dG*dG*dA*d[5mC]*dG*dG*d[5mC]*dA*dT*dT*dG*eG*eT*eG) [compound 416941] (system: human Factor 11 mRNA)
78

# return percent inhibition of Factor 11 at 75 nM of 416842 (antisense eT*eG*eA*eG*eA*dT*dT*d[5mC]*dT*dT*dT*dG*dG*dG*d[5mC]*e[5mC]*eA*eT*eT*e[5mC]) [compound 416842] (system: human Factor 11 mRNA)
71

# return percent inhibition of Factor 11 at 75 nM of 416984 (antisense e[5mC]*eA*dA*d[5mC]*d[5mC]*dG*dG*dG*dA*dT*dG*dA*dT*dG*dA*eG*eT*eG*e[5mC]*eA) [compound 416984] (system: human Factor 11 mRNA)
81

# return percent inhibition of Factor 11 at 75 nM of 417002 (antisense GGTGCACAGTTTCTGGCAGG; 2-13-5 gapmer chemistry, further chemistry not given here) [compound 417002] (system: human Factor 11 mRNA)
70
